Hey, just so you know, these numbers are from PubChem BioAssay AID1307.

measurement-protocol: RAM pathway signaling blockade in S. cerevisiae – dose response (AID 1307);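 also: 0% = DMSO vehicle wells and 100% = 10 µM 1-NA-PP1 control; higher inhibition means more yeast growth since RAM block rescues cells from 5-FOA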
experimental-context: S. cerevisiae RAM network URA3 reporter, 5-FOA growth OD615, hits give high values, yeast express analog-sensitive mutant Cbk1 kinase; at 100 µM unless noted
The campaign covered roughly 1,200 compounds. Fewer than 10 were called active. A selection follows. Potency and affinity values are given separately.
readout: max inhibition

Q) Which value of max inhibition has been reported for Cc1c(N=Nc2ccc(N(C)C)cc2)c(=O)n(-c2ccccc2)n1C in the records?
A) 20.4% (inactive)

Q) Which value of max inhibition has been reported for CCSc1ccc(-c2nn(-c3ccccc3)cc2/C=C(/C#N)C(=O)NCCCOC)cc1 in the records?
A) 13% (inactive)

Q) Which value of max inhibition has been reported for CCOC(=O)c1c(-c2cccs2)csc1NC(=O)COC(=O)c1c(C)noc1C in the records?
A) 4.68% (inactive)

Q) Which value of max inhibition has been reported for C=C(C)COc1ccc(-c2[nH]ncc2Oc2ccccc2OCC)c(O)c1 in the records?
A) 3.4% (inactive)

Q) Which value of max inhibition has been reported for CCCN(CCC)c1nc2ccccc2nc1C(C#N)C(=O)OC(C)COC (stereo not given) in the records?
A) 2.6% (inactive)

Q) Which value of max inhibition has been reported for COc1cc2c(=O)n(Cc3ccco3)c(=O)n(CC(=O)c3ccc(Br)cc3)c2cc1OC in the records?
A) 3.72% [at 0.196 µM] (inactive)

Q) Which value of max inhibition has been reported for Cc1ccc(SCC(=O)Nc2ccc(F)cc2[N+](=O)[O-])cc1C in the records?
A) 2.24% (inactive)

Q) Which value of max inhibition has been reported for Cc1ccccc1OCCC(=O)Nc1cccc(S(=O)(=O)Nc2ccccc2Cl)c1 in the records?
A) 2.67% [at 0.196 µM] (inactive)

Q) Which value of max inhibition has been reported for CCOC(=O)c1ccc(NC(=O)Nc2ccc3c4c(cccc24)C(=O)N3CC)cc1 in the records?
A) 3.19% (inactive)

Q) Which value of max inhibition has been reported for COC(=O)c1ccc(CSc2nc(-c3ccco3)cc(C(F)(F)F)n2)o1 in the records?
A) 5.27% (inactive)
